Where these numbers come from: patent US9938268B2

measured on: Aurora A (Homo sapiens (Human))
Sequence (O14965 whole entry): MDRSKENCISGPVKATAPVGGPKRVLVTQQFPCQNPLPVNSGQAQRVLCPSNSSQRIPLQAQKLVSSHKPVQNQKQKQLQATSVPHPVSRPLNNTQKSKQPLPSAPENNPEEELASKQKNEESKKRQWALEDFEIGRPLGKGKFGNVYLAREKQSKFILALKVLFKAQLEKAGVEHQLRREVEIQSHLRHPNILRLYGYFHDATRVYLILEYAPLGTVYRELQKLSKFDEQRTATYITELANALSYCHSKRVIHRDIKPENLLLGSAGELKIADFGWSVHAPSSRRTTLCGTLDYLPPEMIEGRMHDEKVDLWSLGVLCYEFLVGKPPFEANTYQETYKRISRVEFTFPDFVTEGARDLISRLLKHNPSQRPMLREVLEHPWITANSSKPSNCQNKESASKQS
experiment: Aurora A kinase inhibition (IC50)
Format: biochemical
IC50: recorded values

Recorded results for 9 compounds are shown here.
O=C(Nc1ccc(Nc2ccnc3[nH]c(=O)c4c(c23)CCNC4)cc1)c1ccccc1 101 to 1000 nM
O=C(Nc1ccc(Nc2ccnc3[nH]c(=O)c4c(c23)CCCC4)cc1)c1ccc(F)c(F)c1 1 to 10 nM
O=C(Nc1ccc(Nc2ccnc3[nH]c(=O)c4c(c23)CCN(Cc2ccccc2)C4)cc1)c1ccccc1 101 to 1000 nM
COc1ccc(Nc2ccnc3[nH]c(=O)c4ccoc4c23)cc1 101 to 1000 nM
O=C(Nc1ccc(Nc2ccnc3[nH]c(=O)c4c(c23)CCCC4)cc1)c1ccccc1 11 to 100 nM
O=C(Nc1ccc(Nc2ccnc3[nH]c(=O)c4c(c23)CCCC4)c(F)c1)c1ccc(F)c(F)c1 1 to 10 nM
O=C(Nc1ccc(Nc2ccnc3[nH]c(=O)c4c(c23)CCCC4)cc1)c1ccc(F)cc1 1 to 10 nM
O=C(Nc1ccc(Nc2ccnc3[nH]c(=O)c4c(c23)CNCC4)cc1)c1ccccc1 101 to 1000 nM
O=C(Nc1ccc(Nc2ccnc3[nH]c(=O)c4c(c23)CCCC4)c(F)c1)c1cccc(F)c1F 1 to 10 nM

The value of IC50 measured for the compound "O=C(Nc1ccc(Nc2ccnc3[nH]c(=O)c4n[nH]cc4c23)cc1)c1ccc(F)cc1C(F)(F)F" turned out to be 1 to 10 nM
